- System: E. coli mL308 225
- assay.overview: In Vitro Anti-Bacterial Activity Assay (MIC), gram negative
- Format: cell-based
- setup.conditions: Escherichia coli, ML308225, 18 h, gram negative bacteria; read-out: Antibiotic Activity Gram − (MIC)

[
  {
    "chemical.structure": "CN(C)c1ccc(-c2cc(I)c(O)c3c2C[C@H]2C[C@H]4[C@H](N(C)C)C(O)=C(C(N)=O)C(=O)[C@@]4(O)C(O)=C2C3=O)cc1",
    "MIC": "> 4 µg/mL"
  },
  {
    "chemical.structure": "CN(C)[C@@H]1C(O)=C(C(N)=O)C(=O)[C@@]2(O)C(O)=C3C(=O)c4c(O)c(CNC5CCCC5)cc(-c5ccoc5)c4C[C@H]3C[C@@H]12",
    "MIC": "> 4 µg/mL"
  },
  {
    "chemical.structure": "CC(=O)Cc1cc(-c2ccccn2)c2c(c1O)C(=O)C1=C(O)[C@]3(O)C(=O)C(C(N)=O)=C(O)[C@@H](N(C)C)[C@@H]3C[C@@H]1C2",
    "MIC": "> 4 µg/mL"
  }
]

###

- Test system: E. coli mL308 225
- assay.overview: In Vitro Anti-Bacterial Activity Assay (MIC), gram negative
- Format: cell-based
- setup.conditions: Escherichia coli, ML308225, 18 h, gram negative bacteria; read-out: Antibiotic Activity Gram − (MIC)
observation.type: MIC

[
  {
    "chemical.structure": "CN(C)c1cc(CCC(=O)NC(C)(C)C)c(O)c2c1C[C@H]1C[C@H]3[C@H](N(C)C)C(O)=C(C(N)=O)C(=O)[C@@]3(O)C(O)=C1C2=O",
    "assayed.target": "E. coli mL308 225",
    "result": "> 4 µg/mL"
  },
  {
    "chemical.structure": "COC(=O)C(=O)Nc1ccc(-c2ccc(O)c3c2C[C@H]2C[C@H]4[C@H](N(C)C)C(O)=C(C(N)=O)C(=O)[C@@]4(O)C(O)=C2C3=O)cc1",
    "assayed.target": "E. coli mL308 225",
    "result": "> 4 µg/mL"
  },
  {
    "chemical.structure": "CCCCOC(=O)c1ccc(O)c2c1C[C@H]1C[C@H]3[C@H](N(C)C)C(O)=C(C(N)=O)C(=O)[C@@]3(O)C(O)=C1C2=O",
    "assayed.target": "E. coli mL308 225",
    "result": "< 4 µg/mL"
  },
  {
    "chemical.structure": "NC(=O)C1=C(O)C[C@@H]2C[C@@H]3Cc4ccc(CN5CCCCC5)c(O)c4C(=O)C3=C(O)[C@]2(O)C1=O",
    "assayed.target": "E. coli mL308 225",
    "result": "> 4 µg/mL"
  },
  {
    "chemical.structure": "Cc1ccc(O)c2c1C[C@H]1C[C@H]3[C@H](N(C)C)C(O)=C(C(N)=O)C(=O)[C@@]3(O)C(O)=C1C2=O",
    "assayed.target": "E. coli mL308 225",
    "result": "< 4 µg/mL"
  },
  {
    "chemical.structure": "CN(C)c1cc(CNCc2cc[n+]([O-])cc2)c(O)c2c1C[C@H]1C[C@H]3[C@H](N(C)C)C(O)=C(C(N)=O)C(=O)[C@@]3(O)C(O)=C1C2=O",
    "assayed.target": "E. coli mL308 225",
    "result": "> 4 µg/mL"
  }
]
